Biological target: NA transporter (NA uptake) (Rattus norvegicus, UniProt Q63380)
Construct: from tissue; host or cells: rat brain synaptosomes (P2 fraction) from hypothalamus
Sequence (Q63380 1-617): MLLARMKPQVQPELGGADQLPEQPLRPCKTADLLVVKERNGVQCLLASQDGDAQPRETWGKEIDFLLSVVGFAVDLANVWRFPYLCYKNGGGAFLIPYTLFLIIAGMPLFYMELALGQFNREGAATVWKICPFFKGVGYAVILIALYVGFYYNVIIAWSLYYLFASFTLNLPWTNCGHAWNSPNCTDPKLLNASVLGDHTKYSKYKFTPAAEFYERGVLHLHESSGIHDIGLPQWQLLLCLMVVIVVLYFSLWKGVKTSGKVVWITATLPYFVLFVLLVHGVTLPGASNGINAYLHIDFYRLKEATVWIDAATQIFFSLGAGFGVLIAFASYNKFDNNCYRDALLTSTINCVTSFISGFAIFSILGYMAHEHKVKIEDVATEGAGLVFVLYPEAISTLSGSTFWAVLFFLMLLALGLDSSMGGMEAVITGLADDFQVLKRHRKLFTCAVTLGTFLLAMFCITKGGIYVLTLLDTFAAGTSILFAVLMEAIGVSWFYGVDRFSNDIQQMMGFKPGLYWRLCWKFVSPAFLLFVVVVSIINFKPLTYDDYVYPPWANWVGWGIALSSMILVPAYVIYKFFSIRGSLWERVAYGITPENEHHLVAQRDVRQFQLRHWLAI
Assay: Noradrenalin (NA) uptake inhibition in rat brain synaptosomes (hypothalamus)
Assay type: biochemical
Settings: 10 μM inhibition
recorded endpoint: inhibition at 10 µM (%)

compound="Cn1c(CN2CCCCCC2)ccc1CN1CCC(Cc2ccccc2)CC1 [Example 5]" measured_target="NA transporter (NA uptake) (Rattus norvegicus, UniProt Q63380)" recorded_endpoint="inhibition at 10 µM" reported_value=100

[a] CN(Cc1ccccc1)Cc1ccc(CN2CCCCCC2)n1C [Example 8]
[b] Cn1c(CN2CCOCC2)ccc1CN1CCC(Cc2ccccc2)CC1 [Example 7]
(Q) Lab note: record which item had the higher inhibition at 10 µM, a or b . State the label of the item chosen.
(A) b

[a] CN(Cc1ccccc1)Cc1ccc(CN2CCC(Cc3ccccc3)CC2)n1C [Example 6]
[b] CC1CCCCN1Cc1ccc(CN(C)Cc2ccccc2)n1C (stereo not drawn) [Example 9]
(Q) For the pair a and b , which entry has the numerically smaller recorded inhibition at 10 µM? State the label of the item chosen.
(A) b

----------
Target: 5-HT transporter (5-HT uptake) (Rattus norvegicus, UniProt P31652)
Construct: from tissue; host or cells: rat brain synaptosomes (P2 fraction) from medulla and pons
Sequence (P31652 whole entry): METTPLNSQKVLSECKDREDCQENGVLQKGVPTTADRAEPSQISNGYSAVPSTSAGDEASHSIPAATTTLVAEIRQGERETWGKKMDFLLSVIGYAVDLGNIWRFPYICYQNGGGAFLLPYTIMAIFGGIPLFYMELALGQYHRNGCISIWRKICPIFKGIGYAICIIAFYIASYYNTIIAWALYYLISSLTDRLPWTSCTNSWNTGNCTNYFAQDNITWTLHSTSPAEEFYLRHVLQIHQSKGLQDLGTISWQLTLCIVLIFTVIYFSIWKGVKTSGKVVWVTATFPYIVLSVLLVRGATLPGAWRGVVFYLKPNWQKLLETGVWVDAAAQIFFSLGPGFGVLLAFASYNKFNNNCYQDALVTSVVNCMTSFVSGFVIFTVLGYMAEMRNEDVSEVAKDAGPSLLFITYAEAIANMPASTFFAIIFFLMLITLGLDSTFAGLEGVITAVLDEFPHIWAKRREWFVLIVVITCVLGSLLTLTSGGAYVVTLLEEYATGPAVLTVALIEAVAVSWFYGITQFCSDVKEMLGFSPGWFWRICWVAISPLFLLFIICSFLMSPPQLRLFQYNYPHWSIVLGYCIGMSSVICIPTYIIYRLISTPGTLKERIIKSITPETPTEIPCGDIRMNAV
Test: 5-HT uptake inhibition in rat brain synaptosomes (medulla and pons)
Assay type: biochemical
Settings: % inhibition
Structures can show the parent of a compound that is named as a salt.
recorded endpoint: inhibition at 10 µM (%)

Record excerpt, results attached:
molecule=Cn1c(CN2CCOCC2)ccc1CN1CCC(Cc2ccccc2)CC1 reported_value=55
molecule=CN(Cc1ccccc1)Cc1ccc(CN2CCC(Cc3ccccc3)CC2)n1C reported_value=61
molecule="CCN(CC)Cc1ccc(CN2CCCCC2)n1C [Example 1, dihydrochloride]" reported_value=34
molecule=Cn1c(CN2CCCCCC2)ccc1CN1CCC(Cc2ccccc2)CC1 reported_value=64

[P] Cn1c(CN2CCCCC2)ccc1CN1CCN(c2ccccc2)CC1
[Q] CC1CCN(Cc2ccc(CN3CCCCC3)n2C)CC1
(Q) For the pair P and Q , which entry has the numerically smaller recorded inhibition at 10 µM? State the label of the item chosen.
(A) P
